Assign Log(tau/KA) transduction coefficient (log10) to each entry below.
Molecular target: delta opioid receptor (rat)
Assay: Log(tau/KA) transduction coefficient (log10 (M-1)); higher = more effective agonism
Conditions: receptor: rat DOR; βarrestine 2-GRK2
// return a plain number; no unit text

q: Retrieve Log(tau/KA) transduction coefficient (log10) on delta opioid receptor (rat); query "COc1ccc2c3c1O[C@H]1C(=O)CC[C@@]4(O)[C@@H](C2)N(C)CC[C@]314"
a: 3.16

q: Retrieve Log(tau/KA) transduction coefficient (log10) on delta opioid receptor (rat); query CN(C)C(=O)C(CCN1CCC(O)(c2ccc(Cl)cc2)CC1)(c1ccccc1)c1ccccc1 [Loperamide]
a: 4.29

q: Retrieve Log(tau/KA) transduction coefficient (log10) on delta opioid receptor (rat); query "CN1CC[C@]23c4c5ccc(O)c4O[C@H]2[C@@H](O)C=C[C@H]3[C@H]1C5"
a: 4.24

q: Retrieve Log(tau/KA) transduction coefficient (log10) on delta opioid receptor (rat); query "CSCC[C@H](NC(=O)[C@H](Cc1ccccc1)NC(=O)CNC(=O)CNC(=O)[C@@H](N)Cc1ccc(O)cc1)C(=O)O"
a: 6.67

----------
Assign Log(tau/KA) transduction coefficient (log10) to each entry below.
Molecular target: delta opioid receptor (human) (UniProt P41143)
Sequence (P41143 whole entry): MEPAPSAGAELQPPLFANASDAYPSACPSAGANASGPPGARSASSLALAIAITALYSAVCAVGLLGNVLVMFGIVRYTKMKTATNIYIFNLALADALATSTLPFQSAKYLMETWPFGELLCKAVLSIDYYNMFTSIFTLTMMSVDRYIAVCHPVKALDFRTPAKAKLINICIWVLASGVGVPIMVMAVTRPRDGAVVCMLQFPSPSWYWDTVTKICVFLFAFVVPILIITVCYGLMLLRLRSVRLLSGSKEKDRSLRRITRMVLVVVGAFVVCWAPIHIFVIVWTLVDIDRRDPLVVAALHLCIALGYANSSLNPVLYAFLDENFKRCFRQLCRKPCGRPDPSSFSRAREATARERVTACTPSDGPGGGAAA
Assay: Log(tau/KA) transduction coefficient (log10 (M-1)); higher = more effective agonism
Settings: receptor: human DOR; Gαi1
// return a plain number; no unit text

q: Find the measured Log(tau/KA) transduction coefficient (log10) of COc1ccc2c3c1O[C@H]1C(=O)CC[C@@]4(O)[C@@H](C2)N(C)CC[C@]314 [Oxycodone] and report it.
a: 3.52

q: Find the measured Log(tau/KA) transduction coefficient (log10) of CN1CC[C@]23c4c5ccc(O)c4O[C@H]2[C@@H](O)C=C[C@H]3[C@H]1C5 [Morphine] and report it.
a: 4.26

q: Find the measured Log(tau/KA) transduction coefficient (log10) of CO[C@@]12CC[C@@]3(C[C@@H]1[C@](C)(O)C(C)(C)C)[C@H]1Cc4ccc(O)c5c4[C@@]3(CCN1CC1CC1)[C@H]2O5 [Buprenorphine] and report it.
a: 5.51

q: Find the measured Log(tau/KA) transduction coefficient (log10) of CSCC[C@H](NC(=O)[C@H](Cc1ccccc1)NC(=O)CNC(=O)CNC(=O)[C@@H](N)Cc1ccc(O)cc1)C(=O)O [Met-Enk] and report it.
a: 5.92

q: Find the measured Log(tau/KA) transduction coefficient (log10) of CN(C)C(=O)C(CCN1CCC(O)(c2ccc(Cl)cc2)CC1)(c1ccccc1)c1ccccc1 [Loperamide] and report it.
a: 4.52

----------
Assign Log(tau/KA) transduction coefficient (log10) to each entry below.
Biological target: mu opioid receptor (rat)
Assay: Log(tau/KA) transduction coefficient (log10 (M-1)); higher = more effective agonism
Conditions: receptor: rat MOR; Gαo
// return a plain number; no unit text

q: Find the measured Log(tau/KA) transduction coefficient (log10) of CSCC[C@H](NC(=O)[C@H](Cc1ccccc1)NC(=O)CNC(=O)CNC(=O)[C@@H](N)Cc1ccc(O)cc1)C(=O)O [Met-Enk] and report it.
a: 6.21

q: Find the measured Log(tau/KA) transduction coefficient (log10) of CCC1(c2cccc(O)c2)CCCCN(C)C1 (stereo not drawn) [Meptazinol] and report it.
a: 5.38

q: Find the measured Log(tau/KA) transduction coefficient (log10) of COc1cccc(C2(O)CCCCC2CN(C)C)c1 (stereo not drawn) [Tramadol] and report it.
a: 3.82

q: Find the measured Log(tau/KA) transduction coefficient (log10) of COc1ccc2c3c1O[C@H]1C(=O)CC[C@@]4(O)[C@@H](C2)N(C)CC[C@]314 [Oxycodone] and report it.
a: 5.91

q: Find the measured Log(tau/KA) transduction coefficient (log10) of CO[C@@]12CC[C@@]3(C[C@@H]1[C@](C)(O)C(C)(C)C)[C@H]1Cc4ccc(O)c5c4[C@@]3(CCN1CC1CC1)[C@H]2O5 [Buprenorphine] and report it.
a: 7.28

q: Find the measured Log(tau/KA) transduction coefficient (log10) of C[C@@H](NC(=O)[C@@H](N)Cc1ccc(O)cc1)C(=O)NCC(=O)N(C)[C@@H](Cc1ccccc1)C(=O)NCCO [DAMGO] and report it.
a: 6.49

q: Find the measured Log(tau/KA) transduction coefficient (log10) of CN(C)C(=O)C(CCN1CCC(O)(c2ccc(Cl)cc2)CC1)(c1ccccc1)c1ccccc1 [Loperamide] and report it.
a: 7.56

q: Find the measured Log(tau/KA) transduction coefficient (log10) of CN1CC[C@]23c4c5ccc(O)c4O[C@H]2[C@@H](O)C=C[C@H]3[C@H]1C5 [Morphine] and report it.
a: 7.99

Data origin: the supplement of paper PMC6733853
